Target: HNE (human neutrophil elastase) (Homo sapiens)
Assay: Elastase enzyme in-vitro inhibition assay
Conditions: HNE 20 nM, 15 min incubation at room temperature, substrate MeOSuc-AAPV-AMC 100 μM, PBS buffer
pIC50: −log10 of the molar value.
quantity.measured: pIC50

compound | test.system | reading
Cc1c(-c2ccnn2-c2ccc(C#N)cc2)cc(C(=O)NCCOCCOCCNC(=O)NCCCCNC(=O)NCCOCCOCCNC(=O)c2cc(-c3ccnn3-c3ccc(C#N)cc3)c(C)n(-c3cccc(C(F)(F)F)c3)c2=O)c(=O)n1-c1cccc(C(F)(F)F)c1 | HNE (human neutrophil elastase) (Homo sapiens) | > 6.82
Cc1c(-c2ccnn2-c2ccc(C#N)cc2)cc(C(=O)NCCOCCOCCOCCOCCNC(=O)NCCOCCOCCOCCOCCNC(=O)c2cc(-c3ccnn3-c3ccc(C#N)cc3)c(C)n(-c3cccc(C(F)(F)F)c3)c2=O)c(=O)n1-c1cccc(C(F)(F)F)c1 | HNE (human neutrophil elastase) (Homo sapiens) | > 6.82

# context switch: different compound, same pIC50
**Query** For Cc1c([S+]([O-])c2ccc(C#N)cc2)cc(C(=O)NCCOCCOCCOCCNC(=O)CCC(=O)NCCOCCOCCOCCNC(=O)c2cc([S+]([O-])c3ccc(C#N)cc3)c(C)n(-c3cccc(C(F)(F)F)c3)c2=O)c(=O)n1-c1cccc(C(F)(F)F)c1 (stereo not drawn) , what is its reported pIC50?
**Result** > 6.82

---

Biological target: HNE (human neutrophil elastase) (Homo sapiens, UniProt P08246)
Sequence (P08246 30-267): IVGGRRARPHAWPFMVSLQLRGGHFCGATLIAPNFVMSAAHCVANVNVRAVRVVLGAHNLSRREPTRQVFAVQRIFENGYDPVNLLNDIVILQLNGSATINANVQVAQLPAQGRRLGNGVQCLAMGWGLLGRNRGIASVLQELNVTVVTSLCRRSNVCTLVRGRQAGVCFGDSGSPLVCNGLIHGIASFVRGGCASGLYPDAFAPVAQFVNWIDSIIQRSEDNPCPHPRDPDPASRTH
Assay: Elastase enzyme in-vitro inhibition assay
Conditions: HNE 20 nM, 15 min incubation at room temperature, substrate MeOSuc-AAPV-AMC 100 μM, PBS buffer
pIC50: −log10 of the molar value.
quantity.measured: pIC50

**Query** For Cc1c(-c2ccnn2-c2ccc(C#N)cc2)cc(C(=O)NCCOCCOCCOCCNC(=O)NCCCCNC(=O)NCCOCCOCCOCCNC(=O)c2cc(-c3ccnn3-c3ccc(C#N)cc3)c(C)n(-c3cccc(C(F)(F)F)c3)c2=O)c(=O)n1-c1cccc(C(F)(F)F)c1 [Compound 11] , what is its reported pIC50?
**Result** 6.00 to 6.82

---

Target: HNE (human neutrophil elastase) (Homo sapiens, UniProt P08246)
Sequence (P08246 30-267): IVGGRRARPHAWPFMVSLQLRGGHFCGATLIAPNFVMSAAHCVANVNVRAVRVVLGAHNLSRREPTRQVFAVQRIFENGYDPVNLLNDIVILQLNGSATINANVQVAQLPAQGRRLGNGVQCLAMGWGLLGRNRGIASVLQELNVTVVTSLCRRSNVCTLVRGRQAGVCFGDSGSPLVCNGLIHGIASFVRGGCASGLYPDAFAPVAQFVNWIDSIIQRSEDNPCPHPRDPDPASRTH
Test: Elastase enzyme in-vitro inhibition assay
Details: HNE 20 nM, 15 min incubation at room temperature, substrate MeOSuc-AAPV-AMC 100 μM, PBS buffer
pIC50: −log10 of the molar value.
quantity.measured: pIC50

compound | test.system | pIC50
Cc1c([S+]([O-])c2ccc(C#N)cc2)cc(C(=O)NCCOCCOCCOCCOCCNC(=O)NCCCCNC(=O)NCCOCCOCCOCCOCCNC(=O)c2cc([S+]([O-])c3ccc(C#N)cc3)c(C)n(-c3cccc(C(F)(F)F)c3)c2=O)c(=O)n1-c1cccc(C(F)(F)F)c1 (centres unmarked) | HNE (human neutrophil elastase) (Homo sapiens, UniProt P08246) | > 6.82

# context switch: different compound, same pIC50
**Query** For Cc1c(-c2ccnn2-c2ccc(C#N)cc2)cc(C(=O)NCCOCCOCCOCCNC(=O)NCCOCCOCCOCCNC(=O)c2cc(-c3ccnn3-c3ccc(C#N)cc3)c(C)n(-c3cccc(C(F)(F)F)c3)c2=O)c(=O)n1-c1cccc(C(F)(F)F)c1 , what is its reported pIC50?
**Result** > 6.82

---

Target: HNE (human neutrophil elastase) (Homo sapiens, UniProt P08246)
Assay: Elastase enzyme in-vitro inhibition assay
Conditions: HNE 20 nM, 15 min incubation at room temperature, substrate MeOSuc-AAPV-AMC 100 μM, PBS buffer
Listing: IC50 of selected compounds

# annotated cases, reported IC50 shown
compound | IC50
CC(C)C(NC(=O)[C@@H]1CCCN1C(=O)[C@@H](NC(=O)c1ccc(C(=O)NCCOCCOCCNC(=O)NCCCCNC(=O)NCCOCCOCCNC(=O)c2ccc(C(=O)N[C@H](C(=O)N3CCC[C@H]3C(=O)NC(C(=O)C(F)(F)F)C(C)C)C(C)C)cc2)cc1)C(C)C)C(=O)C(F)(F)F (some centres unmarked) | < 150 nM
Cc1c(-c2ccnn2-c2ccc(C#N)cc2)cc(C(=O)NCCOCCOCCOCCOCCNC(=O)CCC(=O)NCCOCCOCCOCCOCCNC(=O)c2cc(-c3ccnn3-c3ccc(C#N)cc3)c(C)n(-c3cccc(C(F)(F)F)c3)c2=O)c(=O)n1-c1cccc(C(F)(F)F)c1 | < 150 nM

**Query** For Cc1c(-c2ccnn2-c2ccc(C#N)cc2)cc(C(=O)NCCOCCOCCNC(=O)C(=O)NCCOCCOCCNC(=O)c2cc(-c3ccnn3-c3ccc(C#N)cc3)c(C)n(-c3cccc(C(F)(F)F)c3)c2=O)c(=O)n1-c1cccc(C(F)(F)F)c1 , what is its reported IC50?
**Result** < 150 nM

**Query** For Cc1c(-c2ccnn2-c2ccc(C#N)cc2)cc(C(=O)NCCOCCOCCNC(=O)CCC(=O)NCCOCCOCCNC(=O)c2cc(-c3ccnn3-c3ccc(C#N)cc3)c(C)n(-c3cccc(C(F)(F)F)c3)c2=O)c(=O)n1-c1cccc(C(F)(F)F)c1 , what is its reported IC50?
**Result** < 150 nM

**Query** For Cc1c(-c2ccnn2-c2ccc(C#N)cc2)cc(C(=O)NCCOCCOCCOCCOCCNC(=O)NCCCCNC(=O)NCCOCCOCCOCCOCCNC(=O)c2cc(-c3ccnn3-c3ccc(C#N)cc3)c(C)n(-c3cccc(C(F)(F)F)c3)c2=O)c(=O)n1-c1cccc(C(F)(F)F)c1 , what is its reported IC50?
**Result** < 150 nM

**Query** For Cc1c([S+]([O-])c2ccc(C#N)cc2)cc(C(=O)NCCOCCOCCOCCOCCNC(=O)CCC(=O)NCCOCCOCCOCCOCCNC(=O)c2cc([S+]([O-])c3ccc(C#N)cc3)c(C)n(-c3cccc(C(F)(F)F)c3)c2=O)c(=O)n1-c1cccc(C(F)(F)F)c1 (centres unmarked) , what is its reported IC50?
**Result** < 150 nM

**Query** For Cc1c([S+]([O-])c2ccc(C#N)cc2)cc(C(=O)NCCOCCOCCOCCNC(=O)NCCCCNC(=O)NCCOCCOCCOCCNC(=O)c2cc([S+]([O-])c3ccc(C#N)cc3)c(C)n(-c3cccc(C(F)(F)F)c3)c2=O)c(=O)n1-c1cccc(C(F)(F)F)c1 (centres unmarked) , what is its reported IC50?
**Result** 150 to 1000 nM

**Query** For Cc1c([S+]([O-])c2ccc(C#N)cc2)cc(C(=O)NCCOCCOCCNC(=O)C(=O)NCCOCCOCCNC(=O)c2cc([S+]([O-])c3ccc(C#N)cc3)c(C)n(-c3cccc(C(F)(F)F)c3)c2=O)c(=O)n1-c1cccc(C(F)(F)F)c1 (centres unmarked) , what is its reported IC50?
**Result** < 150 nM

**Query** For Cc1c(-c2ccnn2-c2ccc(C#N)cc2)cc(C(=O)NCCOCCOCCOCCNC(=O)CCC(=O)NCCOCCOCCOCCNC(=O)c2cc(-c3ccnn3-c3ccc(C#N)cc3)c(C)n(-c3cccc(C(F)(F)F)c3)c2=O)c(=O)n1-c1cccc(C(F)(F)F)c1 , what is its reported IC50?
**Result** < 150 nM

---

Target: HNE (human neutrophil elastase) (Homo sapiens, UniProt P08246)
Test: Elastase enzyme in-vitro inhibition assay
Conditions: HNE 20 nM, 15 min incubation at room temperature, substrate MeOSuc-AAPV-AMC 100 μM, PBS buffer
Experimental: HNE were purchased from Elastin Products (Owensville, Mo., USA) with catalog number SE563. Fixed concentrations of HNE (20 nM) were incubated with various concentrations of inhibitors in PBS buffer in opaque 96-well plates. […] Fluorescence was monitored on a Molecular Devices Spectramax fluorescence plate reader at 460 nm with excitation at 380 nm for 30 min. Residual enzyme activity was calculated using the slope of fluorescence increase in the first 10 min. […]
pIC50: −log10 of the molar value.
quantity.measured: pIC50

**Query** For Cc1c([S+]([O-])c2ccc(C#N)cc2)cc(C(=O)NCCOCCOCCNC(=O)NCCCCNC(=O)NCCOCCOCCNC(=O)c2cc([S+]([O-])c3ccc(C#N)cc3)c(C)n(-c3cccc(C(F)(F)F)c3)c2=O)c(=O)n1-c1cccc(C(F)(F)F)c1 (centres unmarked) , what is its reported pIC50?
**Result** 6.00 to 6.82
